The entries below come with measured stability values attached.
- assay_protocol: Stability of model compounds in simulated physiological conditions, analytical HPLC
- Format: physicochemical
- conditions: HEPES, pH 7.2 + GSH (9 equiv); RT, 24 h

Completed entries (count: 3):
O=C1OCCN1C(=O)c1ccccc1 >99%
O=C(Cc1ccccc1)N1CCOC1=O 86.3%
O=C1SCCN1C(=O)c1ccccc1 >99%

Quick note, stability for O=C(Cc1ccccc1)N1CCSC1=O landed at >99%

---

- assay_protocol: Stability of model compounds in simulated physiological conditions, analytical HPLC
- Assay type: physicochemical
- conditions: HEPES, pH 8.0; RT, 24 h
reported_metric: stability (%)

A: O=C(c1ccccc1)N1CCOC1=S [Compound 3, Phenyl(2-thioxooxazolidin-3-yl)methanone]
B: O=C(Cc1ccccc1)N1CCOC1=O [Compound 5, 3-(2-phenylacetyl)oxazolidin-2-one]
## Input Which is greater in stability, the first item A or the second item B ? # respond with the chosen item's label
## Output B
